system: Klebsiella Pneumoniae; assay: Antibacterial activity MIC assay (two-fold dilution agar plating); type: cell-based; conditions: Klebsiella Pneumoniae ATCC BAA-2146, NDM-1(+)
Where a SMILES comes first, the peptide text is derived from it. Bridges are numbered along the chain shown (N, C = ends). [ ]: non-standard residue; d: D form. The star is where a group is joined. Heptanoyl(6-Me) = CC(C)CCCCC(=O)*; Dab = NCC[C@H](N)C(=O)O
I'd appreciate it if you could supply Minimal Inhibitory Concentration (MIC) values for the items below.
One number for each entry, in µg/mL.

CC1(C)[C@H](NC(=O)/C(=N\OC2(C(=O)O)CC2)c2nsc(N)n2)C(=O)N1OS(=O)(=O)O [Compound A-6]    32
C#CCON=C(C(=O)NC1C(=O)N(OS(=O)(=O)O)C1(C)C)c1csc(N)n1 (stereo not shown) [Compound B-2]    8
C=CCON=C(C(=O)NC1C(=O)N(OS(=O)(=O)O)C1(C)C)c1csc(N)n1 (stereo not shown) [Compound B-1]    4

Proceeding to the next compound to report its Minimal Inhibitory Concentration (MIC).
INPUT: What value of Minimal Inhibitory Concentration (MIC) has been reported for the following compound? CC(C)CCCCC(=O)N[C@@H](CCN)C(=O)N[C@H](C(=O)N[C@@H](CCN)C(=O)N[C@H]1CCNC(=O)[C@H]([C@@H](C)O)NC(=O)[C@H](CCN)NC(=O)[C@H](CCN)NC(=O)[C@H](CC(C)C)NC(=O)[C@@H](CC(C)C)NC(=O)[C@H](CCN)NC1=O)[C@@H](C)O [Colistin B, colistin B, reference compound] ({Heptanoyl(6-Me)}-[Dab]T[Dab][Dab][Dab][dL]L[Dab][Dab]T; lactam 4-C)
OUTPUT: 1

====

Can you tell me Minimal Inhibitory Concentration (MIC) for the items I'm about to list?
system: Enterobacter aerogenes; test: Antibacterial activity MIC assay (two-fold dilution agar plating); format: cell-based; conditions: Enterobacter aerogenes ATCC 13048
Where a SMILES comes first, the peptide text is derived from it. Bridges are numbered along the chain shown (N, C = ends). [ ]: non-standard residue; d: D form. The star is where a group is joined. Heptanoyl(6-Me) = CC(C)CCCCC(=O)*; Dab = NCC[C@H](N)C(=O)O
Give bare numbers, in µg/mL.

CC1(C)[C@H](NC(=O)/C(=N\OC2(C(=O)O)CC2)c2nsc(N)n2)C(=O)N1OS(=O)(=O)O    1
C#CCON=C(C(=O)NC1C(=O)N(OS(=O)(=O)O)C1(C)C)c1csc(N)n1 (stereo not shown)    1
C=CCON=C(C(=O)NC1C(=O)N(OS(=O)(=O)O)C1(C)C)c1csc(N)n1 (stereo not shown)    1

// below: Minimal Inhibitory Concentration (MIC) requested for another molecule
INPUT: Would you mind telling me what Minimal Inhibitory Concentration (MIC) value was observed for CC(C)CCCCC(=O)N[C@@H](CCN)C(=O)N[C@H](C(=O)N[C@@H](CCN)C(=O)N[C@H]1CCNC(=O)[C@H]([C@@H](C)O)NC(=O)[C@H](CCN)NC(=O)[C@H](CCN)NC(=O)[C@H](CC(C)C)NC(=O)[C@@H](CC(C)C)NC(=O)[C@H](CCN)NC1=O)[C@@H](C)O [Colistin B, colistin B, reference compound] ({Heptanoyl(6-Me)}-[Dab]T[Dab][Dab][Dab][dL]L[Dab][Dab]T; lactam 4-C) ?
OUTPUT: 2
